These measurements were taken from PubChem BioAssay AID1159580.

Experiment: chemical genetic growth profiling, strain panel (AID 1159580);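 also: tested at 20 µM; growth read once vehicle control cultures reached saturation at 30 °C; 1 = growth at the plate median or of vehicle wells; lower values mean less growth of the strain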
Conditions: S. cerevisiae deletion strains, growth OD, locus YHR013C, strain ard1
The campaign covered roughly 5,500 compounds. About 2,000 (36%) were called active. About 18% were inconclusive and are not listed. Rule as the data show it: active = normalized growth mostly below about 0.91 (no sharp cut-off); inconclusive = no clear call, values can overlap the other calls; inactive = mostly above about 0.92. This is one part of the list.
Return exactly one item of True for active, False for inactive

Give the logged outcome of this assay for the following compound: C[C@]12CCC(=O)C=C1CCC1C2CC[C@@]2(C)C1CC[C@@H]2O (stereo partly specified)
False

Answer briefly: the call reported for `COc1cc(O)c(C(=O)/C=C/c2ccc(OC)c(O)c2)c(OC)c1` in this assay.
False

Which outcome was assigned to `CCCCNc1cc(C(=O)O)cc(S(N)(=O)=O)c1Oc1ccccc1` in this test?
False

Which result was noted for this compound in the test: CCC(=O)O[C@H]1CCC2C3CCC4=CC(=O)CC[C@]4(C)C3CC[C@@]21C (stereo partly specified)
False

Short answer needed: outcome of this test for `CCCCCCCCCCCCCCCC[N+](C)(C)C` ?
True

For `COc1cc(O)c(C(=O)/C=C/c2ccccc2)c(OC)c1` , which call appears in the assay record?
False

----------
Test: chemical genetic growth profiling, strain panel (AID 1159580);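 also: tested at 20 µM; growth read once vehicle control cultures reached saturation at 30 °C; 1 = growth at the plate median or of vehicle wells; lower values mean less growth of the strain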
Conditions: S. cerevisiae deletion strains, growth OD, locus YGL240W, strain doc1, hits give low values
The whole screen tested about 5,500 compounds, of which about 2,000 (36%) were called active. Inconclusive results (about 18%) are left out. The list shows a part of the results.
OBSERVED PROPERTY: normalized growth

// normalized growth lookup, key: N=c1ccn2c(n1)O[C@@H]1C2O[C@H](CO)[C@H]1O (stereo partly drawn)
0.959 (inactive)

I am curious: what normalized growth value has been reported for CC(C(=O)O)c1cccc(C(=O)c2ccccc2)c1 (stereo not drawn) ?
0.995 (inactive)

Endpoint output: normalized growth of C=Cc1c2[nH]c(c1C)C=c1[nH]c(c(C)c1C=C)=CC1N=C(C=c3[nH]c(c(C)c3CCC(=O)O)=C2)C(CCC(=O)O)=C1C (stereo not drawn) . Value?
0.977 (inactive)

Query (molecule): `CS(=O)(=O)c1ccc(C2=C(c3ccccc3)C(=O)OC2)cc1` ; field requested: normalized growth
0.975 (inactive)

For `CCCCNc1cc(C(=O)O)cc(S(N)(=O)=O)c1Oc1ccccc1` , what is its reported normalized growth?
0.996 (inactive)

Look at this molecule and give its reported normalized growth. `CC1(C)OC(=O)NC1=O`
1.02 (inactive)

Reported normalized growth for COc1cc(NC(C)CCCN)c2ncccc2c1 (stereo not drawn) : what is it?
0.985 (inactive)

Requested read-out: normalized growth. Entry: COCCc1ccc(OCC(O)CNC(C)C)cc1 (stereo not drawn)
1.03 (inactive)

Please give the measured normalized growth for this molecule: CNC(C)[C@H](O)c1ccccc1 (stereo partly drawn)
0.993 (inactive)

Name the recorded normalized growth for `Cc1[nH]c(C)c(Cl)c(=O)c1Cl` .
0.998 (inactive)

Entry `NCCSSCCN` has what normalized growth?
0.978 (inactive)

Fill blank: measured normalized growth of the molecule `CN[C@@H](C)[C@@H](O)c1ccccc1` is ____.
1 (inactive)

Could you share which normalized growth value was measured for CC(=O)[C@H]1CCC2C3CCC4=CC(=O)CC[C@]4(C)C3CC[C@@]21C (stereo partly drawn) ?
0.906 (inactive)

Fill in: normalized growth of `CC(C)(O)[C@@H]1[C@H]2OC(=O)[C@@H]1[C@]1(O)C[C@H]3O[C@]34C(=O)O[C@H]2[C@]14C` is ___
1 (inactive)

For CO[C@H]1[C@H](O)[C@H](O[C@H]2CC[C@]3(C)C4CC[C@]5(C)C(C6=CC(=O)OC6)CC[C@]5(O)C4CC[C@@H]3C2)O[C@@H](C)[C@@H]1O (stereo partly drawn) , what is its reported normalized growth?
1.02 (inactive)

Given CC(NCCc1ccc(O)cc1)C(O)c1ccc(O)cc1 (stereo not drawn) , state its recorded normalized growth.
1.02 (inactive)

Look at this molecule and give its reported normalized growth. `NC(=O)c1ccc[n+]([C@@H]2O[C@H](COP(=O)([O-])OP(=O)(O)OC[C@H]3O[C@@H](n4cnc5c(N)ncnc54)[C@H](O)[C@@H]3O)[C@@H](O)[C@H]2O)c1`
1.02 (inactive)

What value of normalized growth has been recorded for this entry: `CCCCCCCCCCCCCCCC[N+](C)(C)C`
0.0655 (active)

Which normalized growth is reported for this molecule? CC(=O)NC1SCCC1=O (stereo not drawn)
0.988 (inactive)

Data request, read-out normalized growth, for `O=C(O)c1cc2ccccc2c(Cc2c(O)c(C(=O)O)cc3ccccc23)c1O`
0.96 (inactive)

What value of measured normalized growth is listed for `CC(=O)O[C@H]1[C@@H]2[C@@H](OC(=O)Cc3ccccc3)[C@@H](C)C[C@]2(OC(C)=O)C(=O)/C(C)=C/[C@H]2[C@H](CC[C@@]13CO3)C2(C)C` ?
0.99 (inactive)

Name the reported normalized growth value associated with the molecule CN1CCc2cc3c(cc2[C@H]1C1OC(=O)c2c1ccc1c2OCO1)OCO3 (stereo partly drawn)
0.983 (inactive)

For the molecule shown here, `COc1ccc2c3c1O[C@H]1C[C@@H](O)C=C[C@@]31CCN(C)C2` , give the reported normalized growth.
0.999 (inactive)

Please report the recorded normalized growth for CC(C(=O)O)c1ccc(-c2ccccc2)c(F)c1 (stereo not drawn) .
0.953 (inactive)

# input molecule: CC1=C(CC(=O)O)c2cc(F)ccc2/C1=C\c1ccc(S(C)=O)cc1 (stereo not drawn) ; wanted: its normalized growth
1.01 (inactive)

Please give the measured normalized growth for this molecule: C[C@H]1CC2C([C@@H](O)C[C@@]3(C)C2CC[C@]3(O)C(=O)CO)[C@@]2(C)C=CC(=O)C=C12 (stereo partly drawn)
0.972 (inactive)

Dear colleague, I am looking for the recorded normalized growth of the following molecule: CN1CCCN=C1COC(=O)C(O)(c1ccccc1)C1CCCCC1 (stereo not drawn)
1 (inactive)

Find the recorded normalized growth belonging to `CCOC(=O)C(C)(C)Oc1ccc(Cl)cc1` and report it.
0.949 (inactive)

Please give the measured normalized growth for this molecule: `CCOC(=O)c1c(C)cc(O)c(C=O)c1O`
0.503 (active)

Please look up its normalized growth: `CC(=O)OC(C)(C)[C@@H]1Cc2cc3ccc(=O)oc3cc2O1`
0.96 (inactive)

Look up normalized growth: `C[N+](C)(C)CCOC(N)=O`
1.02 (inactive)

Can you share its normalized growth? I mean this molecule: CC(=O)OCC(=O)[C@@]1(O)CCC2C3CCC4=CC(=O)CC[C@]4(C)C3C(=O)C[C@@]21C (stereo partly drawn)
0.962 (inactive)

For `CC1=C(C/C=C(\C)CCC[C@H](C)CCC[C@H](C)CCCC(C)C)C(=O)c2ccccc2C1=O` , what is its reported normalized growth?
0.956 (inactive)

Can you look up the measured normalized growth of NCC1CCC(C(=O)O)CC1 (stereo not drawn) for me?
0.999 (inactive)

Bench note: what normalized growth did COc1ccc(OC)c(C(O)C(C)N)c1 (stereo not drawn) show?
0.981 (inactive)

I would be grateful if you could share the reported normalized growth for `Cc1cc(O)c(C=O)c(O)c1C(=O)O` .
0.929 (inactive)

I am curious: what normalized growth value has been reported for `COc1cc2c(cc1OC)C(=O)OC2` ?
1.03 (inactive)

GET /values?readout=normalized growth&item= `COc1cc2c(cc1OC)[C@@H]1C(=O)c3ccc(OC)c(CC=C(C)C)c3O[C@@H]1CO2`
1.03 (inactive)

What measured normalized growth goes with CCOC(=O)C(Cc1ccc(O)cc1)NC(C)=O (stereo not drawn) ?
1.03 (inactive)

Any idea what its normalized growth is? The molecule is `CC(=O)N[C@@H](CC(C)C)C(=O)O`
0.972 (inactive)

Which measured normalized growth value corresponds to `COC1=C(OC)C(=O)C(C/C=C(\C)CC/C=C(\C)CC/C=C(\C)CC/C=C(/C)CC/C=C(\C)CC/C=C(\C)CC/C=C(\C)CC/C=C(\C)CC/C=C(\C)CCC=C(C)C)=C(C)C1=O` ?
0.974 (inactive)

normalized growth lookup needed for `COc1ccc2c(c1OC)C(=O)O[C@H]2[C@H]1c2cc3c(cc2CCN1C)OCO3` , thanks.
1 (inactive)

GET /values?readout=normalized growth&item= `COc1cc(NS(=O)(=O)c2ccc(N)cc2)nc(OC)n1`
0.97 (inactive)
